# System: TOPflash (C2C12 cells)
# TEST SUMMARY: TOPflash luciferase reporter assay in C2C12 cells
# Type: cell-based
# CONDITION LABEL: Mus musculus, 192 h; C2C12 cells, 1 μM for 8 days, luciferase signal vs control (untreated cells); read-out: TOPflash activity
PARAMETER MEASURED: fold induction at 1 µM

Some solved cases for reference:
COc1ccc(Nc2cccc(NCCO)n2)cc1 [example 42] : 1.3 to 2
CNc1cc(Nc2ccc(OC)cc2)ncn1 [example 11] : 1.3 to 2
OCCNc1cc(Nc2ccc(N3CCOCC3)cc2)ncn1 [example 4] : < 1.3

Exercise: Which fold induction at 1 µM is reported for this compound? OCCNc1cc(Nc2ccc(Nc3ccccc3)cc2)ncn1 [example 7]
Key: < 1.3

Exercise: Which fold induction at 1 µM is reported for this compound? COc1ccc(Nc2ccnc(NCCO)c2)cc1 [example 40]
Key: < 1.3

Exercise: Which fold induction at 1 µM is reported for this compound? OCCNc1cccc(Nc2ccc(Oc3ccccc3)cc2)n1 [example 44]
Key: < 1.3

----------
# Test system: TOPflash (C2C12 cells)
# TEST SUMMARY: TOPflash luciferase reporter assay in C2C12 cells
# Format: cell-based
# CONDITION LABEL: Mus musculus, 192 h; C2C12 cells, 1 μM for 8 days, luciferase signal vs control (untreated cells); read-out: TOPflash activity
PARAMETER MEASURED: fold induction at 1 µM

OCCNc1cc(Nc2ccc(Oc3ccccc3)cc2)ncn1 : < 1.3
COc1ccc(Nc2cc(NCCO)ncn2)cc1 : < 1.3
CCCNc1cc(Nc2ccc(OC)cc2)ncn1 : 1.3 to 2
COc1ccc(Nc2cccc(NCCCO)n2)cc1 : 1.3 to 2
OCCCNc1cccc(Nc2ccc(Oc3ccccc3)cc2)n1 : 1.3 to 2

Exercise: State its fold induction at 1 µM on TOPflash (C2C12 cells): COc1ccc(Nc2cc(NCCCO)ncn2)cc1
Key: < 1.3

Exercise: State its fold induction at 1 µM on TOPflash (C2C12 cells): OCCCNc1cc(Nc2ccc(N3CCOCC3)cc2)ncn1
Key: < 1.3

Exercise: State its fold induction at 1 µM on TOPflash (C2C12 cells): COc1cccc(Nc2cc(NCCO)ncn2)c1
Key: 1.3 to 2
